For each of the molecules below, state its EC50.
assay.target: follicle-stimulating hormone (FSH) receptor (Rattus norvegicus)
Construct: endogenous in cells
Sequence (P20395 18-692): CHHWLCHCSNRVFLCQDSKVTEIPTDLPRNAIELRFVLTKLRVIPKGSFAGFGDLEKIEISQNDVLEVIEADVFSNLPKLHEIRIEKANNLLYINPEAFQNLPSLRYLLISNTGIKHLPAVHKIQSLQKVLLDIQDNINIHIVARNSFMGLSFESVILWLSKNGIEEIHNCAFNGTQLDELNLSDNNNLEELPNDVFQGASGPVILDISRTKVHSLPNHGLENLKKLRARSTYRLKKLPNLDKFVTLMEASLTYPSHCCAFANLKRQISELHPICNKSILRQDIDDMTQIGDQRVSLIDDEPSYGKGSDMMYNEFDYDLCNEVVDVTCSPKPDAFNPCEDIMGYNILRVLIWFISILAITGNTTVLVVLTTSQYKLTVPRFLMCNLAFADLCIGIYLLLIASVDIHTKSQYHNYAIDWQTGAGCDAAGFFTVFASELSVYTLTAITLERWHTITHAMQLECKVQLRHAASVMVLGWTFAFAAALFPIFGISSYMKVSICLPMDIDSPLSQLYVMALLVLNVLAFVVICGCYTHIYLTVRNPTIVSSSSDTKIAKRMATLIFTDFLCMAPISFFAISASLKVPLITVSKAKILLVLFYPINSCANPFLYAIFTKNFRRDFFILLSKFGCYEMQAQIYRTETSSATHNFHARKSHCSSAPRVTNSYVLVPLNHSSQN
experimental.protocol: Rat granulosa EC50 FSH (Assay B)

## Task Endpoint output: EC50 of COc1cc2c(cc1-c1c(C)nn(CC(=O)O)c1C)-c1c(c(C(=O)N(C)C(C)(C)C)nn1-c1cc(Cl)cc(Cl)c1)CO2 . Value?
## Result 101 to 500 nM

## Task Do the same for COc1cc2c(cc1-c1cnn(CC(=O)O)c1)-c1c(c(C(=O)N(C)C(C)(C)C)nn1-c1cc(F)cc(F)c1)CO2 please
## Result 101 to 500 nM

## Task Follow-up entry: COc1cc2c(cc1-c1cnn(CC(O)CO)c1)-c1c(c(C(=O)N(C)C(C)(C)C)nn1-c1cc(Cl)cc(Cl)c1)CO2 (stereo not drawn) [Compound 190]
## Result > 500 nM

###

assay.target: UniProt:P23945
experimental.protocol: EC50 of cyclic AMP production in CHO FSHR cells + EC20 FSH (Assay A)
stated.conditions: cyclic AMP production in CHO FSHR cells + EC20 FSH (0.265 pM), HTRF
measurement.type: EC50

## Task Form field: EC50 recorded for COc1cc(OC)cc(-n2nc(C(=O)N(C)C(C)(C)C)c3c2-c2cc(-c4cncc(C(N)=O)c4)c(OC)cc2OC3)c1 with UniProt:P23945 (enter value)
## Result < 10 nM

## Task Try this compound too: COc1cc(Cl)cc(-n2nc(C(=O)N3CCOCC3(C)C)c3c2-c2cc(-c4cnn(CC(=O)O)c4)c(OC)cc2OC3)c1
## Result < 10 nM

## Task How about this compound: COc1cc2c(cc1-c1ccn(C)n1)-c1c(c(C(=O)N(C)C(C)(C)C#N)nn1-c1cc(Cl)cc(Cl)c1)CO2
## Result 10 to 100 nM

## Task Subsequent entry: COc1cc(F)cc(-n2nc(C(=O)N3CCOCC3(C)C)c3c2-c2cc(-c4cnn(CC(=O)O)c4)c(OC)cc2OC3)c1
## Result < 10 nM

## Task Would you mind doing COc1cc2c(cc1-c1cncc(C(N)=O)c1)-c1c(c(C(=O)N3CC[S+]([O-])CC3(C)C)nn1-c1cc(F)cc(F)c1)CO2 (centres unmarked) as well?
## Result < 10 nM

## Task What do you have for COc1cc2c(cc1-c1cnn(CC(N)=O)c1)-c1c(c(C(=O)N3CCOCC3(C)C)nn1-c1cc(F)cc(F)c1)CO2 ?
## Result < 10 nM

## Task Request: COc1cc2c(cc1-c1c[nH]nn1)-c1c(c(C(=O)N(C)C(C)(C)C)nn1-c1ccsc1)CO2
## Result < 10 nM

## Task Query COc1cc2c(cc1-c1ccn(C)n1)-c1c(c(C(=O)N(C)C(C)(C)C)nn1-c1cc(F)cc(F)c1)CO2 next
## Result 10 to 100 nM

###

assay.target: FSHR (Homo sapiens)
Sequence (P23945 18-695): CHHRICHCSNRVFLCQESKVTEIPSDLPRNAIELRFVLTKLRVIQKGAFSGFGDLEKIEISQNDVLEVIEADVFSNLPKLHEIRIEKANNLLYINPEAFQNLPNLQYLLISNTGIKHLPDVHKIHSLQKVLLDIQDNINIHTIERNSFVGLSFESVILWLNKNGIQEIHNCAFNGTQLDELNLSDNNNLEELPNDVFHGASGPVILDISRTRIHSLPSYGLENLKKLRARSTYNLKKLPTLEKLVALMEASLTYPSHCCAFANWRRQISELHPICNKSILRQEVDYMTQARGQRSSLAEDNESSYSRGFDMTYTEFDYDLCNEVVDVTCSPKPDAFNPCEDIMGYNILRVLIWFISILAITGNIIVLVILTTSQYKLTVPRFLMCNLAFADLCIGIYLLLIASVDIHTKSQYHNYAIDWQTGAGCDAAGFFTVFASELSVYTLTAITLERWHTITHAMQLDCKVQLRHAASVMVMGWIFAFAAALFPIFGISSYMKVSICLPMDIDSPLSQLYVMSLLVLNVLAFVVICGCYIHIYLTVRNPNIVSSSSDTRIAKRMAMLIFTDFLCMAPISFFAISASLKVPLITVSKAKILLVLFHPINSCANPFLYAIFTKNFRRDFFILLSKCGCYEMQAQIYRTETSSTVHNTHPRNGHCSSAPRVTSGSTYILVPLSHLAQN
experimental.protocol: EC50 of cyclic AMP production in CHO FSHR cells + EC20 FSH (Assay A)
stated.conditions: cyclic AMP production in CHO FSHR cells + EC20 FSH (0.265 pM), HTRF
Procedure: Example 24. EC50 of cyclic AMP production in CHO FSHR cells+EC20 FSH (Assay A) 2500 Cho-FSHR-LUC-1-1-43 cells were plated per well in 5 al of phenol red free DMEM/F12+1% FBS. Cells were plated in 384 well, solid white low volume plates (Greiner 784075) by Multidrop. […] The plates were read on Envision using the cAMP HTRF—low volume 384 well protocol. The readout was the calculated fluorescence ratio (665 nm/620 nm). […]
pEC50: −log10 of the molar value.
measurement.type: pEC50

## Task Looking for the measured pEC50 of CONC(=O)c1cncc(-c2cc3c(cc2OC)OCc2c(C(=O)N4CCOCC4(C)C)nn(-c4cc(Cl)cc(Cl)c4)c2-3)c1 [Compound 96] , can you help?
## Result > 8.00

## Task Moving on to the next compound: COc1cc2c(cc1-c1ccn(C)n1)-c1c(c(C(=O)N3CCOCC3(C)C)nn1-c1cc(F)cc(F)c1)CO2 [Compound 51]
## Result 7.00 to 8.00

## Task Next record, please: COc1cc2c(cc1-c1cc(C(N)=O)ccn1)-c1c(c(C(=O)N(C)C(C)(C)C)nn1-c1cc(Cl)cc(Cl)c1)CO2 [Compound 113]
## Result > 8.00

## Task What would you report for COc1cc(OC)cc(-n2nc(C(=O)N3CCOCC3(C)C)c3c2-c2cc(-c4cncc(C)c4)c(OC)cc2OC3)c1 [Compound 43] ?
## Result > 8.00

## Task For COc1cc2c(cc1-c1cc(F)cc(C(N)=O)c1)-c1c(c(C(=O)N(C)C(C)(C)C)nn1-c1cc(Cl)cc(Cl)c1)CO2 [Compound 97] then?
## Result > 8.00

## Task Entry CNC(=O)c1cncc(-c2cc3c(cc2OC)OCc2c(C(=O)N4CCOCC4(C)C)nn(-c4cc(Cl)cc(Cl)c4)c2-3)c1 [Compound 94] please
## Result > 8.00

## Task Same read-out for COc1cc(OC)cc(-n2nc(C(=O)N3CCOCC3(C)C)c3c2-c2cc(-c4ccccn4)c(OC)cc2OC3)c1 [Compound 47] ?
## Result 7.00 to 8.00

## Task Now consider COc1cc2c(cc1-c1ccn(C)n1)-c1c(c(C(=O)N3CCN(C#N)CC3(C)C)nn1-c1ccsc1)CO2 [Compound 184] and answer again.
## Result > 8.00

## Task What would you report for COc1cc2c(cc1-c1cnoc1C)-c1c(c(C(=O)N(C)C(C)(C)C)nn1-c1cc(Cl)cc(Cl)c1)CO2 [Compound 15] ?
## Result > 8.00
